experiment: Cell viability assay (CellTiter Glo) in a panel of cell lines; type: cell-based, human; settings: human, LXFL 529L cells, LXFL_529L; log10 conc -7 mol/l;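 also: percent of DMSO-treated control cells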

{"COMPOUND": "Cc1ncsc1-c1ccc(C(CCC(C)CCN2CCC(c3ccc4c(c3)n(C3CCCC3)c3nc(=O)c5c(Br)cccc5n43)CC2)NC(=O)C2CC(O)CN2C(=O)C(NC(=O)C2(F)CC2)C(C)(C)C)cc1 (stereo not shown) [ACBI2]", "viability at 0.1 µM [%]": 9.52}

====

assay: Pharmacokinetic analyses in mouse; format: in vivo; conditions: mouse, plasma, iv, 5 mg/kg, mouse, 5 mg/kg i.v.; read-out: Vss

{"SMILES DATA": "Cc1ncsc1-c1ccc([C@H](CCCCCN2CCC(c3ccc4c(c3)n(C3CCCC3)c3nc(=O)c5c(Br)cccc5n43)CC2)NC(=O)[C@@H]2C[C@@H](O)CN2C(=O)[C@@H](NC(=O)C2(F)CC2)C(C)(C)C)cc1", "Vd [L/kg]": 0.385}
